Experiment: yeast transport mutant growth inhibition pilot in 384-well plates, post-Golgi transport modulator project (AID 636)
Details: absorbance 615 nm, about 18 h, stronger effect = higher value
inhibition by entry:
measurement_label: inhibition (%)

compound: Cc1nc2cc(NC(=O)N3CC4(C)CC3CC(C)(C)C4)ccc2n1C (configuration not stated)
unit_label: %
quantitative_result: -6.71
//
compound: O=C(O)c1ccc(-n2nnnc2Oc2ccccc2C(=O)N2CCOCC2)cc1
unit_label: %
quantitative_result: -1.97
//
compound: CC[C@H]1CN2CCc3cc(OC)c(OC)cc3[C@@H]2C[C@@H]1C[C@H]1NCCc2cc(OC)c(OC)cc21
unit_label: %
quantitative_result: -1.69
//
compound: Cc1cc(C)c(C(=O)CSc2nnc(-c3ccccc3Br)o2)cc1C
unit_label: %
quantitative_result: -3.87
//
compound: CCNc1nc(NC(C)C)nc(N(C#N)CCOc2ccc(Cl)cc2Cl)n1
unit_label: %
quantitative_result: 16.2
//
compound: CC1(c2ccc(OC(F)F)cc2)NC(=O)N(CC(=O)Nc2ccc3c(c2)OCO3)C1=O (configuration not stated)
unit_label: %
quantitative_result: -5.71
//
compound: CCOC(=O)Cc1nnc(NC(=O)c2ncn[nH]2)s1
unit_label: %
quantitative_result: -2.93
//
compound: CSc1nnc2c3ccccc3n(Cc3ccccc3)c2n1
unit_label: %
quantitative_result: -2.37
//
compound: CN(Cc1nc(-c2ccncc2)no1)S(=O)(=O)c1ccc(Br)cc1
unit_label: %
quantitative_result: -5.32
//
compound: Nc1nc(Cl)nc2c1ncn2[C@@H]1O[C@H](CO)[C@@H](O)[C@H]1O
unit_label: %
quantitative_result: -1.43
//
compound: COc1ccc(NC(=O)c2ccco2)cc1NC(=O)c1cccs1
unit_label: %
quantitative_result: 0.13
//
compound: CCCCCCNC(=O)c1c(N)n(/N=C/c2ccco2)c2nc3ccccc3nc12
unit_label: %
quantitative_result: -4.4
//
compound: Cc1ccc(-c2ccc(/C=N/n3cnnc3)o2)cc1Cl
unit_label: %
quantitative_result: -2.08
//
compound: CCc1nccn1S(=O)(=O)c1ccc2ccc(C)cc2c1
unit_label: %
quantitative_result: 2.24
//
compound: Cc1cc2c(c(=O)n1CCN(C)C)C(c1ccncc1)C(C#N)=C(N)O2 (configuration not stated)
unit_label: %
quantitative_result: -2.37
//
compound: Cc1csc(NC(=O)c2cccc(S(=O)(=O)N3CCCCC3)c2)n1
unit_label: %
quantitative_result: -3.51
//
compound: COc1cc(-n2nc(C)c3c2OC(N)=C(C#N)C3c2ccccc2)c(Cl)c(Br)c1O (configuration not stated)
unit_label: %
quantitative_result: -6.4
//
compound: Cc1cc(N2C(=O)C(O)=C(C(=O)c3ccc(C)o3)C2c2cccs2)no1 (configuration not stated)
unit_label: %
quantitative_result: -2.13
//
compound: O=C(NCCN1CCCCCC1)c1ccc(N2CCCC2=O)cc1
unit_label: %
quantitative_result: -7.2
//
compound: COC(=O)c1ccc2c(c1)C(=O)N(C1CCCCC1)C2=O
unit_label: %
quantitative_result: -2.93
//
compound: COc1cccc2cc(C(=O)n3ccc(C)n3)c(=O)oc12
unit_label: %
quantitative_result: -3.29
//
compound: Cc1ccc(S(=O)(=O)N(C)CC(=O)NC2CC(C)(C)NC(C)(C)C2)cc1
unit_label: %
quantitative_result: -1.04

###

Catalogue of viability readings, one per entry.
Experiment: MRP1 drug-resistance reversers in H69AR cells – cell-based, doxorubicin co-treatment, pilot screen (AID 601)
Settings: H69AR cells + 2 uM doxorubicin, CellTiter-Glo, 72 h; measured here: viability with 2 uM doxorubicin; at 10 µM; stronger effect = lower value

compound: CCC(=O)n1nc(-c2ccco2)nc1N
viability: 98.2%
//
compound: Cc1cccc(NC(=O)c2oc3c(c2C)C(=O)CC(C)(C)C3)n1
viability: 83%
//
compound: CC(C)Cn1c(N)c(C(=O)NCCN2CCOCC2)c2nc3ccccc3nc21
viability: 79.3%
//
compound: NC(=O)SCC(=O)Nc1cccc(Cl)c1
viability: 56.8%
//
compound: CN(C)c1ccc(/C=C/C(O)=C2/C(=O)N(C)C3(C)CC2c2ccccc2O3)cc1 (stereo not drawn)
viability: 44.6%
//
compound: COc1ccc(CCNc2oc(Cc3cccc4ccccc34)nc2C#N)cc1OC
viability: 80.4%
//
compound: C=CCC(Nc1ccco1)c1ccccc1 (stereo not drawn)
viability: 87.8%
//
compound: CCn1c(=N)n(CC(O)COc2cccc(C)c2)c2ccccc21 (stereo not drawn)
viability: 72.3%
//
compound: COc1cccc2c1C(=O)c1c(O)c3c(c(O)c1C2=O)C[C@@](O)(C(=O)CO)C[C@@H]3O[C@H]1C[C@H](N)[C@H](O)[C@H](C)O1
viability: 25.6%
//
compound: C=CCNc1oc(-c2cccc3ccccc23)nc1C#N
viability: 84.1%
//
compound: CS(=O)(=O)N(CC(=O)N1CCCCCC1)c1ccccc1
viability: 90%
//
compound: COc1ccc(C)cc1NC(=O)CCN1CCCC1
viability: 87.7%
//
compound: O=C(CN1C(=O)COc2ccccc21)NCCCN1CCN(Cc2ccccc2)CC1
viability: 85%
//
compound: Cc1ccc(NCc2nnc(SCC(=O)NCc3ccco3)n2CC2CCCO2)cc1Cl (stereo not drawn)
viability: 95.8%
//
compound: O=C(CSc1nnnn1-c1ccccc1)Nc1nsc(-c2ccc(Cl)cc2)n1
viability: 54.8%
//
compound: O=C1CCCc2c1nn(-c1ccccc1)[n+]2[O-]
viability: 96.5%
//
compound: COc1ccc(CN2C(=O)C(O)(CC(=O)c3c(C)n[nH]c3C)c3ccccc32)cc1OC (stereo not drawn)
viability: 92%
//
compound: CN1CCCN(C(c2ccccc2)c2ccc(Cl)cc2)CC1 (stereo not drawn)
viability: 69.4%
//
compound: COc1cccc(-c2csc3nc[nH]c(=O)c23)c1
viability: 70%
//
compound: Cn1nc(-c2ccc(C(=O)N3CCN(c4ccccc4)CC3)cc2)c2ccccc2c1=O
viability: 88.9%
//
compound: Cc1onc(-c2c(Cl)cccc2Cl)c1C(=O)NCCCN1CCOCC1
viability: 101%
//
compound: N#CCSCC(=O)Nc1ccc(F)cc1
viability: 83.6%
//
compound: CN(C)S(=O)(=O)Nc1ccccc1C(N)=O
viability: 84.6%

###

Listing of entries alongside the reported differential viability (reversal).
Assay: MRP1 drug-resistance reversers in H69AR cells – cell-based, doxorubicin co-treatment, pilot screen (AID 601)
Settings: H69AR cells + 2 uM doxorubicin, CellTiter-Glo, 72 h; at 10 µM; stronger effect = higher value
measurement_label: differential viability (reversal) (%)

compound: COc1ccc(CCNC(=O)C2CCCN(c3nn4c(=O)cc(C)nc4s3)C2)cc1OC (stereo unspecified)
unit_label: %
quantitative_result: -4.58

compound: O=C(c1nc2n(n1)C(c1ccc(Cl)cc1)C=C(c1ccccc1)N2)N1CCOCC1 (stereo unspecified)
unit_label: %
quantitative_result: -6.89

compound: N#CC(C(=O)NCCc1ccccc1)c1nc2ccccc2nc1N1CCOCC1 (stereo unspecified)
unit_label: %
quantitative_result: -3.4

compound: NC(=O)SCC(=O)Nc1cccc(Cl)c1
unit_label: %
quantitative_result: 9.55

compound: c1ccc2[nH]c(CSc3nnc(-c4ccncc4)o3)nc2c1
unit_label: %
quantitative_result: -5.82

compound: C=CCC(Nc1ccco1)c1ccccc1 (stereo unspecified)
unit_label: %
quantitative_result: 14.1

compound: COc1ccc(OC)c(NC(=O)Cc2coc3ccc(C)cc23)c1
unit_label: %
quantitative_result: 3.86

compound: CCS(=O)(=O)c1nc2ccccc2n1CC(=O)N1CCOCC1
unit_label: %
quantitative_result: 3.73

compound: CCOC(=O)c1sc(NC(=O)CSc2nc3c(cc2C#N)CCC3)c(C#N)c1C
unit_label: %
quantitative_result: -8.41

compound: Oc1ccc(-c2onc(C(F)(F)F)c2-c2cscn2)c(O)c1
unit_label: %
quantitative_result: 5.71

compound: CCc1nccn1S(=O)(=O)c1ccc2ccc(C)cc2c1
unit_label: %
quantitative_result: -2.18

###

Experiment: growth suppression of yeast trafficking mutant, preliminary HTS, modulators of trafficking downstream of Golgi apparatus project, 1536-format plate, OD 615 nm (AID 637)
Conditions: yeast transport mutant growth, absorbance 615 nm, 18 h; stronger effect = higher value
Below is a list of entries, each paired with its recorded inhibition value.
measurement_label: inhibition (%)

compound: Cc1ccccc1CN1CCN(C(=O)c2cccc(F)c2)CC1
measurement_label: inhibition
quantitative_result: -0.16
//
compound: CCc1nnc(NC(=O)CCC(=O)Nc2ccccc2)s1
measurement_label: inhibition
quantitative_result: 5.71
//
compound: CN(C)S(=O)(=O)N1CCN(S(=O)(=O)c2ccc(F)cc2)CC1
measurement_label: inhibition
quantitative_result: -2.22
//
compound: COc1ccc(C(=O)COC(=O)CCn2nnc(-c3cccs3)n2)cc1
measurement_label: inhibition
quantitative_result: -6.35
//
compound: O=C(NCc1ccco1)c1cccc(-c2nnc(-c3ccccc3)o2)c1
measurement_label: inhibition
quantitative_result: 2.86
//
compound: COc1ccc(-c2coc3c(CN4CCCCC4)c(O)c(CN4CCCCC4)c(O)c3c2=O)cc1
measurement_label: inhibition
quantitative_result: 6.19
//
compound: N#CCSCC(=O)Nc1ccc(F)cc1
measurement_label: inhibition
quantitative_result: 0
//
compound: CCOCCCNC(=O)c1ccc2c(c1)ncn2C1CCCC1
measurement_label: inhibition
quantitative_result: -3.81
//
compound: Cc1ccc(C2C3CN(C(C)C)CC=C3C(C#N)=C(N)C2(C#N)C#N)cc1 (stereo unspecified)
measurement_label: inhibition
quantitative_result: 1.43
//
compound: Nc1nc(Nc2ccc(Cl)cc2Cl)nc(C(F)(F)F)n1
measurement_label: inhibition
quantitative_result: 11.3
//
compound: COC(=O)Cn1c2ccccc2c2nc(C)sc21
measurement_label: inhibition
quantitative_result: -3.65

Data credit: PubChem BioAssay
